test system: Fer (mouse); experiment: phosphorylation enrichment, bacterial display (enrichment ratio); higher = better substrate or ligand; peptides without Tyr show the background
Please provide measured phosphorylation enrichment for the entries that follow.
Form: value (number only, do not type unit).

PMFHSYVSLPF [PLXNA2_Y293_K289M] yielded phosphorylation enrichment of 0.789

Sample LEVETYRRLLD [KRT12_Y429_I426V] ; phosphorylation enrichment observed: 0.439

Value of measured phosphorylation enrichment for the entry CTTIHYNCMCN [TP53_Y234_Y236C] : 0.541

Recorded phosphorylation enrichment (sequence FTAVGYHKHIT [NOMO1_Y1137] ): 0.48

The recorded phosphorylation enrichment for FPPTHYIRRVP [SLC4A11_Y820_YF] is 0.747

The sequence listed as QKINKYLTVPA [SLC9A1_Y683_N682K] has a reported phosphorylation enrichment of 0.567

The recorded phosphorylation enrichment for entry SCTFTYLLGDR [ETHE1_Y38] equals 0.426

---

Provide the recorded SH2 binding enrichment for the entries that follow.
molecular target: c-Src SH2; test: SH2 binding enrichment of the phosphorylated peptide, bacterial display (enrichment ratio); higher = better substrate or ligand; peptides without Tyr show the background;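 note: peptide library displayed on the E. coli surface as eCPX fusions, selected cells deep-sequenced, score is each peptide's frequency after selection divided by its frequency in the input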

The measured SH2 binding enrichment associated with TFEPNYGTVKR [RAPGEF6_Y1447_Q1452R_YF] reads 0.514

Record FQLPFYNTVPS [BMPR1A_Y458_M460T_YF] , field SH2 binding enrichment: 5.8

So for NTFEKYWLFFQ [GATM_Y103_P105L_YF] , the logged SH2 binding enrichment turned out to be 0.758

The sequence listed as IRSGIYFKPES [L2HGDH_Y102_H98R_YF] has a reported SH2 binding enrichment of 0.642

# SH2 binding enrichment of IVAREYYSEAD [CAMK2A_Y106] = 3.2

Measured SH2 binding enrichment of REGKIYEFNQV [ZNF665_Y162_H157R_YF] : 0.465

Briefly, SH2 binding enrichment measured for LLVVVYKFRCF [PSEN1_Y154_L153V_YF] : 1.41

For CKQGKYLNWDA [ATM_Y54_S49C] the sequence record lists SH2 binding enrichment as 0.735

Entry HEKKAYAFCGT [RPS6KA3_Y226_S227A] — recorded SH2 binding enrichment = 0.721

Measured SH2 binding enrichment of HNQDDYSFPSR [LDLR_Y845_G844D_YF] : 0.678

---

biological target: EPHB1 (UniProt P54762); experiment: phosphorylation enrichment, bacterial display (enrichment ratio); higher = better substrate or ligand; peptides without Tyr show the background
Sequence (P54762 whole entry, looked up): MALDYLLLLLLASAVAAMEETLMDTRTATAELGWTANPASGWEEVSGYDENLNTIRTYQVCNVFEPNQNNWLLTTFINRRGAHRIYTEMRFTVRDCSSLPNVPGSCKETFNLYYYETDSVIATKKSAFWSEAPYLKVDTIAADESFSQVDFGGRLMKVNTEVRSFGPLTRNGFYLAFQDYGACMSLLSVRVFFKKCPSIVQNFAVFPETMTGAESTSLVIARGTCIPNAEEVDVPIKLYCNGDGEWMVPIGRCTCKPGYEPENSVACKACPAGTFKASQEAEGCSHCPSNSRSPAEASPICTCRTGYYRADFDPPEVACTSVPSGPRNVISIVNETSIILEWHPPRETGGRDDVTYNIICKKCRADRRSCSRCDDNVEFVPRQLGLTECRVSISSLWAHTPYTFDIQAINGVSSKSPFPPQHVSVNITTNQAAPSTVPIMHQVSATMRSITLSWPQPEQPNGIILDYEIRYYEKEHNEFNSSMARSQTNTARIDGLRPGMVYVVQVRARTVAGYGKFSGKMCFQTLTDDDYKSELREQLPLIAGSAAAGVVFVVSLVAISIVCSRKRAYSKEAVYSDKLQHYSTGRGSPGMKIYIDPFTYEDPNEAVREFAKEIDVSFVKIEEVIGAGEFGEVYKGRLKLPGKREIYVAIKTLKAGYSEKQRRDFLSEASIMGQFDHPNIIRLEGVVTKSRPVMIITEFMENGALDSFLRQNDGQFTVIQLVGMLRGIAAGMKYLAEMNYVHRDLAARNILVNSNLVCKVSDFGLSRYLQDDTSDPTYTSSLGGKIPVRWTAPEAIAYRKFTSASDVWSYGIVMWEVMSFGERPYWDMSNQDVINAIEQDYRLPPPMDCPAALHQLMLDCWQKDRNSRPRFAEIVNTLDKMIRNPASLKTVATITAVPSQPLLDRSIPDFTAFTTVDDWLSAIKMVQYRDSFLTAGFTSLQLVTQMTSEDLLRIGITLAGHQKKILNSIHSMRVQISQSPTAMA
Assign Met whenever phosphorylation enrichment does not fall below 0.6; assign Not met whenever it does.

Form field: phosphorylation enrichment at least 0.6? Entry: RPSRWYQFRVA [ANOS1_Y259]
Met

Determine whether measured phosphorylation enrichment meets or exceeds 0.6 for CTTIHYNYMGN [TP53_Y234_C238G]
Met

// inclusive: phosphorylation enrichment at least 0.6? input: KRAIGYFSATS [FAM120A_Y327_YF]
Not met

Is reported phosphorylation enrichment greater than or equal to 0.6 here: IRSGIYFKPES [L2HGDH_Y102_H98R_YF]
Met

Hello, I need to know if MEIHAYRKLSE [LMNA_Y376_L380S] has measured phosphorylation enrichment not below 0.6. Thanks!
Not met

Reported phosphorylation enrichment reaches at least 0.6 for SPRDTYSDRIG [CTPS1_Y567_S571I] ?
Not met

Test whether the sequence LEPHIYAVADV [MYO9A_Y216] records phosphorylation enrichment of 0.6 or higher.
Met

Record KDYETYQSFQN [CTNND2_Y1157_P1159S] ; criterion: phosphorylation enrichment no lower than 0.6. Met?
Met

For this sequence, is measured phosphorylation enrichment 0.6 or higher? LIYTNYEAGKD [GSTP1_Y112]
Met

Please tell me: is the sequence NVFGNYNQQPS [HNRNPA2B1_Y306_D302V] at or over 0.6 in terms of phosphorylation enrichment?
Not met

I'd appreciate it if you could say whether TQIGQYGNGLK [MORC2_Y100] has phosphorylation enrichment at least equal to 0.6.
Not met

Kindly determine if phosphorylation enrichment recorded for KHCEDYVCSYN [DSC1_Y846] is above or exactly 0.6.
Met

Determine whether measured phosphorylation enrichment meets or exceeds 0.6 for EQKKYYNAMKN [SCN5A_Y1495_K1500N]
Not met

Has RLNWIYFKDQT [RS1_Y165_YF] a recorded phosphorylation enrichment greater than or equal to 0.6?
Met

Please check the record QLFGAYLRIHA [BSCL2_Y213_YF] and state if its phosphorylation enrichment is at or above 0.6.
Met

Threshold query (phosphorylation enrichment >= 0.6) on GHMYAYDWISI [BEST1_Y227_L224M]
Met

Please tell me: is the sequence TGSFTCEAVEL [MTMR14_Y462_Y462C] at or over 0.6 in terms of phosphorylation enrichment?
Met

Decide: is the reported value of phosphorylation enrichment for LGIDRYHAIVY [NPSR1_Y147_S143G] equal to or greater than 0.6?
Not met

Answer whether phosphorylation enrichment of MGCVNYGAFIN [GLB1_Y485_R482C_YF] is greater than or equal to 0.6.
Met

Textbook exercise: given the entry FSALDYKIFFF [WDPCP_Y210_L205F_YF] , state whether its phosphorylation enrichment is greater than or equal to 0.6.
Met

Given RALLNYIASKY [GSTA3_Y74_I71L] , state whether its phosphorylation enrichment is at least 0.6.
Not met

Does the reported phosphorylation enrichment for DHKRQYELLKL [KIF4B_Y684_R680H] fall at or above the 0.6 mark?
Not met

Is reported phosphorylation enrichment greater than or equal to 0.6 here: SHLEDYPFNAE [AKR1B10_Y310]
Not met

Check this sequence for phosphorylation enrichment at or above 0.6: SLKAFYGEDAK [ALDH3A1_Y272_E270A]
Not met

Does phosphorylation enrichment meet or surpass 0.6 for HSREDYFECFQ [ZIM2_Y411_Q408R] ?
Met

Test whether the sequence GRRNTCFASIA [ACADM_Y352_Y352C_YF] records phosphorylation enrichment of 0.6 or higher.
Not met

Hello, I need to know if SDVDLYQVRTA [PSMD9_Y70] has measured phosphorylation enrichment not below 0.6. Thanks!
Not met

Please check the record VDTAMYATMQR [TPO_Y55] and state if its phosphorylation enrichment is at or above 0.6.
Not met

Determine whether this sequence has phosphorylation enrichment no lower than 0.6: VAMDDYLKNVM [LRRK2_Y707]
Not met

Determine whether this sequence has phosphorylation enrichment no lower than 0.6: RFVFFYSFLLK [PTEN_Y178_YF]
Met

Can GRPMDYQVSIT [OTOF_Y254] be said to have phosphorylation enrichment at or above 0.6?
Not met

For this sequence, is measured phosphorylation enrichment 0.6 or higher? FEEDSYSHIMA [FDPS_Y388_YF]
Not met

Record WCKPLYFSCAV [MMS22L_Y28_P27L] ; criterion: phosphorylation enrichment no lower than 0.6. Met?
Met

Please indicate if the recorded phosphorylation enrichment for LEITWYPFDME [RIPOR2_Y316_V320M] meets or exceeds 0.6.
Met

Reported phosphorylation enrichment at or above 0.6? GHPYAYDWISI [BEST1_Y227_L224P]
Met

Threshold query (phosphorylation enrichment >= 0.6) on FVHDNYVIRRT [CPS1_Y1450]
Not met

In plain terms: is recorded phosphorylation enrichment at least 0.6 for LNEQHYGGLTG [PGAM4_Y92_R90Q] ?
Met

Does phosphorylation enrichment meet or surpass 0.6 for TLKDVCDDGKF [RPS6KA3_Y483_Y483C_YF] ?
Not met

# check: phosphorylation enrichment of CIILLYIFLKN [STXBP1_Y411_R406C] is greater than or equal to 0.6
Not met

Quick check: does QYNIQYSSSAA [ERBB2IP_Y981] have phosphorylation enrichment greater than or equal to 0.6?
Not met

API: above_or_equal(metric=phosphorylation enrichment, cutoff=0.6) for item AQADIYKADFQ [IKBKG_Y308]
Not met

Tell me whether phosphorylation enrichment is at least 0.6 here: SGGGSYGSGGG [KRT1_Y539]
Not met

Would you say PHRSIYFSSPK [MPG_Y75_Y71H] shows phosphorylation enrichment at minimum 0.6?
Met

Evaluate ILKPDYQPLAV [HYDIN_Y1072_I1077V] : phosphorylation enrichment at minimum 0.6?
Not met

Answer whether phosphorylation enrichment of HRGHLYLAIEF [TEK_Y899_Y897H_YF] is greater than or equal to 0.6.
Met

Is it the case that CKQGKYLNWDA [ATM_Y54_S49C] has phosphorylation enrichment reaching or exceeding 0.6?
Not met

Decide: is the reported value of phosphorylation enrichment for AAARPYHIQKW [ACSBG1_Y677] equal to or greater than 0.6?
Not met

Item VLAAQYTTVGR [SGSH_Y240_D235V] with phosphorylation enrichment of 0.6 or above?
Not met

Could you please find out whether NTGGFYDLFGG [PTPN11_Y63_D61G_YF] has phosphorylation enrichment that meets 0.6 or exceeds it?
Met

Form field: phosphorylation enrichment at least 0.6? Entry: DMLTLYVNTAA [SMCHD1_Y403_Q400L]
Met

Textbook exercise: given the entry GGSSPYSRRLA [CDK13_Y351_P356A] , state whether its phosphorylation enrichment is greater than or equal to 0.6.
Not met

Hi, just wondering whether IWIFHYAKGQP [MPZ_Y82_S78W] shows phosphorylation enrichment of 0.6 or higher.
Not met

# check: phosphorylation enrichment of FGGTVYHSPVS [PRC1_Y511] is greater than or equal to 0.6
Not met

# check: phosphorylation enrichment of DPNQQYYIAMD [TBX15_Y159_H156N] is greater than or equal to 0.6
Met

These data points were gathered from the supplement of paper PMC10065799.
